System: Parabacteroides distasonis
protocol-details: growth AUC relative to DMSO control (median of replicates) (fraction); higher = more growth (less inhibition), active = hit call of the paper;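 active = AUC reduced over 20% with Padj below 0.05 in at least 2 of 3 replicates; inactive = otherwise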
test-conditions: 20 µM; 24 h
Can you answer with just one of these options? 1 = active, -1 = inactive

Req: Hello, I am checking results. What call was entered for Oc1ccc(C(c2ccc(O)cc2)(C(F)(F)F)C(F)(F)F)cc1 ?
Resp: 1

Req: Recorded test call requested for CCCN(CCOc1c(Cl)cc(Cl)cc1Cl)C(=O)n1ccnc1
Resp: -1

Req: What outcome does the record of this test show for O=[N+]([O-])c1cc(C(F)(F)F)c(Cl)c([N+](=O)[O-])c1Nc1ncc(C(F)(F)F)cc1Cl ?
Resp: -1

Req: I'd appreciate the recorded outcome for CCOP(=S)(OCC)Oc1cc(C)nc(C(C)C)n1 from this test.
Resp: -1

Req: Per the records of this test, what outcome belongs to Clc1cccc(Cl)c1Cl ?
Resp: -1

Req: Any idea what this test logged for CC(C)(C)C(O)C(Oc1ccc(-c2ccccc2)cc1)n1cncn1 (mixture of isomers) ?
Resp: -1

Req: For Cc1[nH]c(=O)n(C(C)(C)C)c(=O)c1Cl , which call appears in the assay record?
Resp: -1

Req: Answer briefly: the call reported for C[C@H]1[C@H](c2ccc(Cl)cc2)SC(=O)N1C(=O)NC1CCCCC1 in this assay.
Resp: -1

Req: Please share the test call associated with CNC(=O)Oc1cccc2ccccc12 .
Resp: -1

Req: Which result was noted for this compound in the test: OC(c1ccc(Cl)cc1)(c1cncnc1)c1ccccc1Cl (stereo unspecified)
Resp: -1

Req: Dear colleague, could you share the recorded outcome for O=C(Nc1ccccc1)Nc1ccnc(Cl)c1 when you have a moment?
Resp: 1

---

Test system: Fusobacterium nucleatum subsp. animalis
protocol-details: growth AUC relative to DMSO control (median of replicates) (fraction); higher = more growth (less inhibition), active = hit call of the paper
test-conditions: 20 µM; 24 h
Please go through the items and note down their growth AUC.
Respond with the number and no other words.

Reading of growth AUC for Cc1ccccc1CO[C@@H]1C[C@@]2(C(C)C)CC[C@]1(C)O2 (mixture of isomers) with Fusobacterium nucleatum subsp. animalis: 1.02

Record COP(=O)(OC)SCn1c(=O)oc2cc(Cl)cnc21 ; system Fusobacterium nucleatum subsp. animalis; growth AUC = 0.983

The compound Clc1ccc(C(c2ccc(Cl)cc2)C(Cl)(Cl)Cl)cc1 , when measured on Fusobacterium nucleatum subsp. animalis, yielded growth AUC of 0.916

Form field growth AUC for item O=C(NC(=O)c1c(F)cccc1F)Nc1ccc(Cl)cc1 on Fusobacterium nucleatum subsp. animalis: 0.987

Summary: Clc1ccc(Cl)cc1 , Fusobacterium nucleatum subsp. animalis, growth AUC = 1.1

Here CCNP(=S)(OC)O/C(C)=C/C(=O)OC(C)C (configuration not stated) was tested on Fusobacterium nucleatum subsp. animalis, and its growth AUC came to 0.981

Form: item CNC(=O)CSP(=O)(OC)OC ; test system Fusobacterium nucleatum subsp. animalis; growth AUC: 1.04

GET /values?item= O=CNC(N1CCN(C(NC=O)C(Cl)(Cl)Cl)CC1)C(Cl)(Cl)Cl (configuration not stated) &system= Fusobacterium nucleatum subsp. animalis returns growth AUC: 0.658

Hey, Fusobacterium nucleatum subsp. animalis data for N#Cc1c[nH]cc1-c1cccc2c1OC(F)(F)O2 : growth AUC came out at 0.888

Record for Clc1ccc(C2(Cn3cncn3)OCCO2)c(Cl)c1 under target or system Fusobacterium nucleatum subsp. animalis: growth AUC reported as 0.988

growth AUC for Fusobacterium nucleatum subsp. animalis with input CC1CNC(=S)N1 (configuration not stated) equals 1.05

Entry O=C(O)CNCP(=O)(O)O , Fusobacterium nucleatum subsp. animalis data, growth AUC value: 1.08
